- measurementProtocol: in vitro
- settings: human, hek293t cells
For each record, write down the corresponding viability at 48 h, 25 µM.
Numeric answer plus unit only.

[ask] # viability at 48 h, 25 µM lookup, item O=C(CCl)N1C2CCC1c1ccccc12 [5-M11]
[reply] -0.105%

[ask] Same read-out for C=CC(=O)N(Cc1cc2cccc(OC)c2o1)[C@@H]1C[C@H]2CC[C@@H]1O2 (racemic) [1-J13] ?
[reply] 172%

[ask] Subsequent entry: C=CC(=O)N(C)CC(=O)N1CCC(CN2CCCCC2=O)CC1 [2-F16]
[reply] 57%

[ask] Item: O=C(CCl)Nc1cc(-c2ccc3c(c2)CCC3)nn1-c1ccccc1 [6-J10]
[reply] 0.354%

[ask] Can you check COc1ccc(C=C(C#N)C(=O)Nc2ccccc2C)cc1O [8-P15] next?
[reply] 120%

[ask] Field entry: C=CC(=O)N1CC(C)c2ccc(S(N)(=O)=O)cc21 (centres unmarked) [3-L16]
[reply] 1.43%

[ask] Follow-up entry: CC(Cl)C(=O)NCc1ccc(Cl)cc1 (centres unmarked) [6-I04]
[reply] 107%

[ask] Note, next up: CC(Cl)C(=O)Nc1ccc(S(N)(=O)=O)cc1 (centres unmarked) [6-B06]
[reply] 101%

[ask] // next record N#CC(=Cc1c(F)c(F)c(F)c(F)c1F)C(=O)NC1CCCCC1 [8-O15]
[reply] 0.544%

[ask] Okay, and CC(Cl)C(=O)NC1(C(=O)N(C)C)CC(F)(F)C1 (centres unmarked) [7-K20] ?
[reply] 83.7%

[ask] Request: C=CC(=O)NC(CO)c1cccc(OC)c1 (centres unmarked) [2-E22]
[reply] 122%
